Listed here: items and their measured MIC.
test system: Pichia kudriavzevii; experiment: Antifungal activity Candida krusei DSM 6128 by two-fold dilution method; type: functional
Write the answer as a number in µg/mL, unit excluded.

smiles str: CCCCCCCCCCCCCC(=O)Oc1cc(C)cc(C)c1C(C)(C)CC(=O)Oc1ncc(F)c(N)n1
test system: Pichia kudriavzevii
MIC [µg/mL]: 512
--
smiles str: CCCCCCCCCC(=O)Oc1cc(C)cc(C)c1C(C)(C)CC(=O)Oc1ncc(F)c(N)n1
test system: Pichia kudriavzevii
MIC [µg/mL]: 256
--
smiles str: CCCCCCCC(=O)Oc1cc(C)cc(C)c1C(C)(C)CC(=O)Oc1ncc(F)c(N)n1
test system: Pichia kudriavzevii
MIC [µg/mL]: 128

In: Name the recorded MIC of the compound listed here: CCCCCCCCCCCC(=O)Oc1cc(C)cc(C)c1C(C)(C)CC(=O)Oc1ncc(F)c(N)n1
Out: 256
